system: Fibroblast; experiment: Multiplex assay against human fibroblast; assay type: toxicity, cell-based; settings: 48 h, 1 µM, compound concentration 1 uM, replicate 2
Total Cell Count values, listed per item
observable: Total Cell Count

{"compound": "C[C@@H](NCCCc1cccc(C(F)(F)F)c1)c1cccc2ccccc12.Cl [CINACALCET HYDROCHLORIDE]", "test-result": 169}
{"compound": "Cl.N#Cc1ccc2[nH]cc(CCCCN3CCN(c4ccc5oc(C(N)=O)cc5c4)CC3)c2c1 [VILAZODONE HYDROCHLORIDE]", "test-result": 153}
{"compound": "C=CC(=O)Nc1cccc(C(=O)Nc2ccc(Nc3cc(-c4[nH]c(SC)nc4C)ccn3)cc2)c1", "test-result": 69}
{"compound": "COc1ncc(-c2ccc3nccc(-c4ccnnc4)c3c2)cc1NS(=O)(=O)c1ccc(F)cc1F", "test-result": 61}

----------
system: HEK-293T; test: Multiplex assay against HEK293T; assay type: toxicity, cell-based; conditions: human, 48 h, 10 µM, compound concentration 10 uM, replicate 2
Strictly below 90% in Population Mitochondria Different-Phenotype (%): yes. Otherwise: no.

{"compound": "CN(C)CC#Cc1ccc(OCCCc2sc(N3CCc4cccc(C(=O)Nc5nc6ccccc6s5)c4C3)nc2C(=O)O)c(F)c1", "discrete-label": "yes"}
{"compound": "Cn1cc(-c2[nH]c3cc(NC(=O)[C@H](N)C4CCCCC4)cc4c3c2C=NNC4=O)cn1", "discrete-label": "yes"}
{"compound": "c1cn2cc(-c3ccc4cn[nH]c4c3)nc(Nc3ccc(N4CCOCC4)cc3)c2n1", "discrete-label": "yes"}
{"compound": "OC1(c2ccc(Cl)cc2)CCN(Cc2c[nH]c3ccccc23)CC1", "discrete-label": "yes"}
{"compound": "COc1cccc([C@@H](C)NCCCc2ccccc2Cl)c1.Cl [TECALCET HYDROCHLORIDE]", "discrete-label": "no"}
{"compound": "C=CC(=O)Nc1ccc2ncnc(Nc3ccc(OCc4cccc(F)c4)c(Cl)c3)c2c1.Cc1ccc(S(=O)(=O)O)cc1", "discrete-label": "yes"}
{"compound": "Cc1nc(-c2ccc(-c3ccc(C(=O)N4CCc5cc6c(cc54)C4(CCN(C)CC4)CO6)cc3)c(C)c2)no1", "discrete-label": "no"}

----------
system: U2OS; assay: Incucyte cell viability with U2OS; type: toxicity, cell-based; details: human, 18 h, 10 µM, compound concentration 10 uM, replicate number 2, timepoint 18 hours; also: filed as whole numbers so only -1 and 0 and 1 occur
Entries and their measured Growth Rate follow.
observable: Growth Rate

{"molecule": "C[C@@H](c1cccc(CN)c1)n1cc(Cl)cc(C(N)=O)c1=N.Cl", "test-result": 0}
{"molecule": "CN([C@@H]1CCc2c(CC(=O)O)c3cc(S(C)(=O)=O)ccc3n2C1)S(=O)(=O)c1ccc(F)cc1 [CRTH2-negative-control]", "test-result": 1}
{"molecule": "Cn1c(-c2csc(C3CCN(CC4=NC5N=CC=CC5N4)CC3)n2)nc2ccccc21 (stereo unspecified)", "test-result": 1}
{"molecule": "CN(C)c1ncnc(-c2ccc3nc(Nc4cc(CN5CCN(C(=O)CC(F)(F)F)CC5)ccn4)[nH]c3c2)c1Cl", "test-result": 1}
{"molecule": "CCC(=O)Nc1cccc(Oc2nc(Nc3ccc(N4CCN(C)CC4)cc3OC)ncc2Cl)c1", "test-result": 1}
{"molecule": "O=c1nc(-c2ccccn2)sc2ccccc12", "test-result": 0}
